test: Inhibition of ATP synthase in Mycobacterium smegmatis inverted membrane vesicles assessed as reduction in oxidative phosphorylation of ADP incubated for 60 mins in presence of NADH by luciferin/luciferase coupled […] assay; set-up: species or system Mycolicibacterium smegmatis
readout kind: pIC50
Numbers only, as −log10 of the molar value.

Some entries whose results are on file:
smi: COc1cc2nc(NCCC3CCOCC3)nc(Nc3cnc(OC)c(C)c3)c2cc1OC
readout kind: pIC50
value observed: 6.40
//
smi: CCOc1ncc(Nc2cc(NCCC3CCOCC3)nc3cc(OC)c(OC)cc23)cc1F
readout kind: pIC50
value observed: 6.10
//
smi: CN(C)CCOc1ncc(Nc2cc(C(F)(F)F)nc3cc(-c4ccc(F)cc4)nn23)cc1F
readout kind: pIC50
value observed: 6.30
//
smi: Cn1nc(Nc2nc(NCCC3CCOCC3)nc3ccccc23)cc1C(C)(C)C
readout kind: pIC50
value observed: 5.77

Now for a further compound.
Ask: Could you please provide reported pIC50 for COc1cc2nc(NCCc3ccccc3Cl)cc(Nc3cnc(OCCN(C)C)c(F)c3)c2cc1OC ? Thanks!
Reply: 7.22
